test system: ATP; test: switch fluorescence ratio, 500 uM ATP over buffer (Cy3 cluster intensity, sum of 5 cycles each) (fold (ratio)); higher = stronger signal-on switching upon ATP binding; sequences stand for … in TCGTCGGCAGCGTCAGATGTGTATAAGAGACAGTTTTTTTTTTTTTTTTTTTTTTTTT…TC; details: aptamer strand: ATP DNA aptamer (quencher-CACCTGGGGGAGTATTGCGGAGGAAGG + anchor), 100 nM annealed; ATP concentration: 500 uM;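 also: ATP exposure 15 min at 22 °C before imaging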
Below, each entry is listed with its recorded switch fluorescence ratio.

{"BIOSEQUENCE": "TAAATCAGAG", "switch fluorescence ratio": 0.99}
{"BIOSEQUENCE": "AAATTTTAAT", "switch fluorescence ratio": 0.979}
{"BIOSEQUENCE": "ATTTTTGGTT", "switch fluorescence ratio": 1.01}
{"BIOSEQUENCE": "GGGACAGCAT", "switch fluorescence ratio": 0.996}
{"BIOSEQUENCE": "GGGAAAAAGT", "switch fluorescence ratio": 0.985}
{"BIOSEQUENCE": "TGTTTAAGTT", "switch fluorescence ratio": 1.02}
{"BIOSEQUENCE": "TTTTTGGTGG", "switch fluorescence ratio": 1}
{"BIOSEQUENCE": "GGGTTCTTAC", "switch fluorescence ratio": 0.999}
{"BIOSEQUENCE": "AGGTGGGGAT", "switch fluorescence ratio": 0.994}
{"BIOSEQUENCE": "TTGTATTTA", "switch fluorescence ratio": 1.01}
{"BIOSEQUENCE": "GAACTTAGAT", "switch fluorescence ratio": 1.01}
{"BIOSEQUENCE": "AAATCGTGCA", "switch fluorescence ratio": 1}
{"BIOSEQUENCE": "ATAAGGGGGA", "switch fluorescence ratio": 0.998}
{"BIOSEQUENCE": "ATGGCAGACT", "switch fluorescence ratio": 1.02}
{"BIOSEQUENCE": "TGGTTGAGTA", "switch fluorescence ratio": 0.981}
{"BIOSEQUENCE": "GCTGGGGGAT", "switch fluorescence ratio": 1}
{"BIOSEQUENCE": "AGCGCGGGGG", "switch fluorescence ratio": 1}
{"BIOSEQUENCE": "GATCAATGGG", "switch fluorescence ratio": 0.997}
{"BIOSEQUENCE": "TATAATTGCC", "switch fluorescence ratio": 0.991}

Every entry's value here was drawn from the supplement of paper PMC10126150.
